molecular target: Thermus thermophilus TtPFK optical probe 254/255-TtPFK-cpYFP variant, TtPFK V54Q/I253K/Q254L/R255L/G256F, cpYFP Y1S (Thermus thermophilus, UniProt P21777, form not given/G256F/I253K/Q254L/R255L/V54Q); construct: His-tag; test: phosphoenolpyruvate titration of purified optical probe (fluorescence ratio); details: phosphoenolpyruvate 0 to 10 mM, purified probe treated 10 minutes, ex 420/485 nm, em 528 nm
Sequence (P21777 other isoform, or with tags, fused parts or gaps V54Q, form open): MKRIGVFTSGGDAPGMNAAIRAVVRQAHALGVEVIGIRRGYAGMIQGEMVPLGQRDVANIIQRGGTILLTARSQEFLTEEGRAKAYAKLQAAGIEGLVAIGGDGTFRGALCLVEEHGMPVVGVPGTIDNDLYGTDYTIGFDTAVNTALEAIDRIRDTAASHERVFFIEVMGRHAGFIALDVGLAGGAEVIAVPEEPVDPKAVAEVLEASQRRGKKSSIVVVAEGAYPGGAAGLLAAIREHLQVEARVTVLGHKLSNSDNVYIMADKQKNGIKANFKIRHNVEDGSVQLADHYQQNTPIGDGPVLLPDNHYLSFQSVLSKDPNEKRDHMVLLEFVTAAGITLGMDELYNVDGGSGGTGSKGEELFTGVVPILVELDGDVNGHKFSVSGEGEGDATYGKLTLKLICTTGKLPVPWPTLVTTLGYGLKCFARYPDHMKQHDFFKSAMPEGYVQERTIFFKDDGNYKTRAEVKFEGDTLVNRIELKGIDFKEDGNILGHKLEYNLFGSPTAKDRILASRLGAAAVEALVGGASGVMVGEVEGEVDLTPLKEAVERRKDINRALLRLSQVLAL
assay-metric: Kd (µM)
Return type: number; implicit unit µM.

Prompt: State the recorded Kd for this entry: C=C(OP(=O)(O)O)C(=O)O [phosphoenolpyruvate, Phosphoenolpyruvate]
Completion: 328

* * *

target: Thermus thermophilus TtPFK optical probe 254/255-TtPFK-cpYFP variant, TtPFK I253V/Q254L/R255F/G256Y, cpYFP Y1H/N246F (Thermus thermophilus, UniProt P21777, form not given/G256Y/I253V/Q254L/R255F); construct: His-tag; experiment: phosphoenolpyruvate titration of purified optical probe (fluorescence ratio); details: phosphoenolpyruvate 0 to 10 mM, purified probe treated 10 minutes, ex 420/485 nm, em 528 nm
Sequence (P21777 other isoform, or with tags, fused parts or gaps, stated change not applied): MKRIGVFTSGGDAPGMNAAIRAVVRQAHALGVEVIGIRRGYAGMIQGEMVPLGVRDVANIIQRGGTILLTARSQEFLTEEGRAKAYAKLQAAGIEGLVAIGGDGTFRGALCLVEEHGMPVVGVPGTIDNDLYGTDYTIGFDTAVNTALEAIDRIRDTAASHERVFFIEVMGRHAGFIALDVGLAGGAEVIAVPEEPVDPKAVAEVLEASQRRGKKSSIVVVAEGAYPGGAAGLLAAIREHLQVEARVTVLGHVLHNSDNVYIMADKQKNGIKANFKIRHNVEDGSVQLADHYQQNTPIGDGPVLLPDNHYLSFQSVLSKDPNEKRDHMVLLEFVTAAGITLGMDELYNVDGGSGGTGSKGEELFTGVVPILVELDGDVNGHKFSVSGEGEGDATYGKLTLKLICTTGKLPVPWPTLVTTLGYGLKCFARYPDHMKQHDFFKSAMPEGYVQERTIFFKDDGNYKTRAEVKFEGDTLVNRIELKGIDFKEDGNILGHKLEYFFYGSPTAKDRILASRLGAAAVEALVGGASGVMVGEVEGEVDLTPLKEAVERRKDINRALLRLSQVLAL
assay-metric: pKd
Bear in mind: pKd is minus log10 of a mol/L concentration; give just that figure.

Prompt: State the recorded pKd for this entry: C=C(OP(=O)(O)O)C(=O)O [phosphoenolpyruvate, Phosphoenolpyruvate]
Completion: 4.09

* * *

biological target: Thermus thermophilus TtPFK optical probe 254/255-TtPFK-cpYFP variant, TtPFK V54K/I253K/Q254L/R255L/G256F, cpYFP Y1S (Thermus thermophilus, UniProt P21777, form not given/G256F/I253K/Q254L/R255L/V54K); construct: the numbering corresponds to the full length of the phosphoenolpyruvate-sensitive polypeptide; His-tag; test: phosphoenolpyruvate titration of purified optical probe (fluorescence ratio); details: phosphoenolpyruvate 0 to 10 mM, purified probe treated 10 minutes, ex 420/485 nm, em 528 nm
Sequence (P21777 other isoform, or with tags, fused parts or gaps V54K, form open): as the sequence (P21777 other isoform, or with tags, fused parts or gaps V54Q, form open) above, with Q54K counted along it
assay-metric: pKd
Bear in mind: pKd is minus log10 of a mol/L concentration; give just that figure.

Prompt: State the recorded pKd for this entry: C=C(OP(=O)(O)O)C(=O)O [phosphoenolpyruvate, Phosphoenolpyruvate]
Completion: 3.89

* * *

target: Thermus thermophilus TtPFK optical probe 254/256-TtPFK-I253Q/Q254L/G256V/G257L-cpYFP-Y1T/N246F (Thermus thermophilus, UniProt P21777, form not given/G256V/G257L/I253Q/Q254L); construct: the numbering corresponds to the full length of the phosphoenolpyruvate-sensitive polypeptide; His-tag; test: phosphoenolpyruvate titration of purified optical probe (fluorescence ratio); settings: phosphoenolpyruvate 0 to 10 mM, purified probe treated 10 minutes, ex 420/485 nm, em 528 nm
assay-metric: Kd (µM)
Return type: number; implicit unit µM.

Prompt: State the recorded Kd for this entry: C=C(OP(=O)(O)O)C(=O)O [phosphoenolpyruvate, Phosphoenolpyruvate]
Completion: 13.1

* * *

Target: Thermus thermophilus TtPFK optical probe 254/256-TtPFK-cpYFP variant, TtPFK G213T/I253Q/Q254L/G256V/G257L, cpYFP Y1T/N246F (Thermus thermophilus, UniProt P21777, form not given/G213T/G256V/G257L/I253Q/Q254L)
Construct: the numbering corresponds to the full length of the phosphoenolpyruvate-sensitive polypeptide; His-tag
Sequence (P21777 other isoform, or with tags, fused parts or gaps G213T, form open): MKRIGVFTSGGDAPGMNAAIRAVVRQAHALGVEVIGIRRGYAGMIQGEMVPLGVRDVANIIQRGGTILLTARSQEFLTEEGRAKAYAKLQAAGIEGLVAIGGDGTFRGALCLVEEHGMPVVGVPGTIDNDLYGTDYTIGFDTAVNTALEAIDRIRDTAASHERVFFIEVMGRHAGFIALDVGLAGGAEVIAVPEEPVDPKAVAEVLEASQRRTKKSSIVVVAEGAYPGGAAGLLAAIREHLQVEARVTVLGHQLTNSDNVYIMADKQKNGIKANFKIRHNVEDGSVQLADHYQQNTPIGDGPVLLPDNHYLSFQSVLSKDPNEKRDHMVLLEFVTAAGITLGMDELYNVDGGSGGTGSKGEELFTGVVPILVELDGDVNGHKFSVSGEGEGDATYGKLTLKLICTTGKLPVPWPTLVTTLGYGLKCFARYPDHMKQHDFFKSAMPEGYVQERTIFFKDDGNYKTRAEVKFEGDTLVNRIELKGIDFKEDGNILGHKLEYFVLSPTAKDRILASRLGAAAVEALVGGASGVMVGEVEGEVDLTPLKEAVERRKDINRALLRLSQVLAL
Test: phosphoenolpyruvate titration of purified optical probe (fluorescence ratio)
Conditions: phosphoenolpyruvate 0 to 10 mM, purified probe treated 10 minutes, ex 420/485 nm, em 528 nm
Method: • 1. […] 100 µl 1 µM of protein solution was taken, incubated at 37 °C for 10 min, phosphoenolpyruvate was added for titration, and the fluorescence intensity of 528 nm emission after 420 nm and 485 nm fluorescence excitation of the protein was measured. The fluorescence excitation and emission determination of the samples were done using a multifunctional fluorescence microplate reader. • 6. […]
assay-metric: Kd
Include the unit right after the number.

Prompt: State the recorded Kd for this entry: C=C(OP(=O)(O)O)C(=O)O [phosphoenolpyruvate, Phosphoenolpyruvate]
Completion: 199 µM

* * *

target: Thermus thermophilus TtPFK optical probe 254/256-TtPFK-cpYFP variant, TtPFK K215E/I253Q/Q254L/G256V/G257L, cpYFP Y1T/N246F (Thermus thermophilus, UniProt P21777, form not given/G256V/G257L/I253Q/K215E/Q254L); construct: the numbering corresponds to the full length of the phosphoenolpyruvate-sensitive polypeptide; His-tag; assay: phosphoenolpyruvate titration of purified optical probe (fluorescence ratio); conditions: phosphoenolpyruvate 0 to 10 mM, purified probe treated 10 minutes, ex 420/485 nm, em 528 nm
Sequence (P21777 other isoform, or with tags, fused parts or gaps K215E, form open): as the sequence (P21777 other isoform, or with tags, fused parts or gaps G213T, form open) above, with T213G, K215E counted along it
assay-metric: Kd (µM)
Return type: number; implicit unit µM.

Prompt: State the recorded Kd for this entry: C=C(OP(=O)(O)O)C(=O)O [phosphoenolpyruvate, Phosphoenolpyruvate]
Completion: 249

* * *

target: Thermus thermophilus TtPFK optical probe 254/256-TtPFK-cpYFP variant, TtPFK I253D/Q254L/G256V/G257L, cpYFP Y1T/N246F (Thermus thermophilus, UniProt P21777, form not given/G256V/G257L/I253D/Q254L); construct: the numbering corresponds to the full length of the phosphoenolpyruvate-sensitive polypeptide; His-tag; assay: phosphoenolpyruvate titration of purified optical probe (fluorescence ratio); details: phosphoenolpyruvate 0 to 10 mM, purified probe treated 10 minutes, ex 420/485 nm, em 528 nm
assay-metric: pKd
Bear in mind: pKd is minus log10 of a mol/L concentration; give just that figure.

Prompt: State the recorded pKd for this entry: C=C(OP(=O)(O)O)C(=O)O [phosphoenolpyruvate, Phosphoenolpyruvate]
Completion: 4.87

* * *

target: Thermus thermophilus TtPFK optical probe 254/256-TtPFK-cpYFP variant, TtPFK I253S/Q254L/G256V/G257L, cpYFP Y1T/N246F (Thermus thermophilus, UniProt P21777, form not given/G256V/G257L/I253S/Q254L); construct: the numbering corresponds to the full length of the phosphoenolpyruvate-sensitive polypeptide; His-tag; assay: phosphoenolpyruvate titration of purified optical probe (fluorescence ratio); details: phosphoenolpyruvate 0 to 10 mM, purified probe treated 10 minutes, ex 420/485 nm, em 528 nm
Sequence (P21777 other isoform, or with tags, fused parts or gaps, stated change not applied): as the sequence (P21777 other isoform, or with tags, fused parts or gaps G213T, form open) above, with T213G, Q253S counted along it
assay-metric: pKd
Bear in mind: pKd is minus log10 of a mol/L concentration; give just that figure.

Prompt: State the recorded pKd for this entry: C=C(OP(=O)(O)O)C(=O)O [phosphoenolpyruvate, Phosphoenolpyruvate]
Completion: 5.05

The values you see were collected from patent EP4624497A1.
